Field: fraction unbound at 10 min, 36 MBq/mL. Provide a value for each of the compounds that follow.
- assay_info: Plasma protein binding by ultrafiltration
- Assay type: in vitro ADME
- stated_conditions: cynomolgus, cynomolgus monkey, pH 7.4, NHP plasma, baseline, read-out: plasma free fraction (fP)
Respond numerically, and do not add a unit to the figure.

Prompt: Sample COc1cc2c(cc1OCC[18F])CCN1C[C@@H](CC(C)C)[C@H](O)C[C@H]21 [[^18F]FE-DTBZ] — what was its fraction unbound at 10 min, 36 MBq/mL?
Completion: 0.56

Prompt: Sample [2H]C([2H])([18F])C([2H])([2H])Oc1cc2c(cc1OC)[C@H]1C[C@@H](O)[C@H](CC(C)C)CN1CC2 [[^18F]FE-DTBZ-d4] — what was its fraction unbound at 10 min, 36 MBq/mL?
Completion: 0.52
